Sourced from ChEMBL document CHEMBL6177988

System: Quadruplex DNA
Assay: Thermal stabilization of human telomeric G-quadruplex F21T DNA (FAM-5'-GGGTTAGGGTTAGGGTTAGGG-3'-TAMRA) assessed as change in half-width of melting temperature at 2 uM by FRET-melting assay
Assay type: nucleic-acid assay
experimental.readout: deltaTm1/2 (°C)

1. CN(C)CCCCNCc1ccc(-c2nc(-c3ccccc3)c3ccn(-c4ccc(CNCCCCN(C)C)cc4)c3n2)cc1	26.4
2. CN(C)CCCCNCc1ccc(-c2cc(-c3ccc(CNCCCCN(C)C)cc3)c3ccn(-c4ccccc4)c3c2)cc1	23.7
3. CC(C)CCCCNCc1ccc(-c2cc(-c3ccc(CNCCCCC(C)C)cc3)c3ccn(-c4ccccc4)c3c2)cc1	4
4. CN(C)CCCNCc1ccc(-c2nc(-c3ccc(CNCCCN(C)C)cc3)c3ccn(-c4ccccc4)c3n2)cc1	25.9
5. CN(C)CCCCNCc1ccc(-c2nc(-c3ccc(CNCCCCN(C)C)cc3)c3ncn(-c4ccccc4)c3n2)cc1	31.7
6. CN(C)CCCCNCc1ccc(-c2nc(-c3ccc(CNCCCCN(C)C)cc3)c3c(ccn3-c3ccccc3)n2)cc1	18.6
7. CN(C)CCCCCNCc1ccc(-c2cc3c(ccn3-c3ccccc3)c(-c3ccc(CNCCCCCN(C)C)cc3)n2)cc1	22.6
8. CN(C)CCCCNCc1ccc(-c2cc(-c3ccc(CNCCCCN(C)C)cc3)c3ccn(-c4ccccc4)c3n2)cc1	26.3
9. CN(C)CCCCNCc1ccc(-c2cn(-c3ccccc3)c3ncnc(-c4ccc(CNCCCCN(C)C)cc4)c23)cc1	13.1
10. CN1CCN(CCCCNCc2ccc(-c3nc(-c4ccc(CNCCCCN5CCN(C)CC5)cc4)c4ncn(-c5ccccc5)c4n3)cc2)CC1	30.2
11. CN(C)CCCCCNCc1ccc(-c2cn(-c3ccccc3)c3ncnc(-c4ccc(CNCCCCCN(C)C)cc4)c23)cc1	14.8
12. CN(C)CCCCNCc1ccc(-c2ccc3ccc4ccc(-c5ccc(CNCCCCN(C)C)cc5)nc4c3n2)cc1	18.5
